experiment: Drug uptake in NMRI mouse brain at 1 mg/kg, ip measured after 1 hr by HPLC-MS/MS analysis; format: ADME, organism-based; details: read-out: Ct
OBSERVED PROPERTY: concentration at 1 h (nM)
// return numeric value only (unit: nM, not printed)

Some compounds with known concentration at 1 h results, for comparison:
entry_smiles=Cc1ccc(Oc2ccc(C(=O)C(=O)Nc3ccc4c(ccn4C)c3)cn2)cc1 observed_property="concentration at 1 h" recorded_number=108
entry_smiles=Cc1ccc(OC2CCN(C(=O)C(=O)Nc3ccc4c(ccn4C)c3)CC2)cc1 observed_property="concentration at 1 h" recorded_number=120
entry_smiles=O=C(NCc1ccc2[nH]ccc2c1)N1CC(COc2ccc(C(F)(F)F)cc2)C1 observed_property="concentration at 1 h" recorded_number=673

// next entry
**Q:** Please look up its concentration at 1 h: `Cc1ccc(CN2CCN(C(=O)C(=O)Nc3ccc4c(ccn4C)c3)CC2)cc1`
**A:** 39
